System: NCI-H1944
Experiment: relative viability (nuclei count vs DMSO), 5 days (fraction); higher = more cells survive
Conditions: first compound 0.01 µM
Classification scheme (relative viability): lower = under 0.4, middle = from 0.4 up to 0.7, upper = 0.7 and over

>  <compound>
O=c1cc(N2CCOCC2)oc2c(-c3cccc4c3sc3ccccc34)cccc12 + COc1cc2c(Oc3ccc(NC(=O)C4(C(=O)Nc5ccc(F)cc5)CC4)cc3F)ccnc2cc1OCCCN1CCOCC1 [Foretinib] (partner 0.25 µM)

>  <label>
upper

$$$$
>  <compound>
O=c1cc(N2CCOCC2)oc2c(-c3cccc4c3sc3ccccc34)cccc12 + COc1cccc2cc(-c3nc([C@H]4CC[C@H](C(=O)O)CC4)n4ncnc(N)c34)[nH]c12 [OSI-027] (partner 0.5 µM)

>  <label>
middle

$$$$
>  <compound>
CCN(CC)CCCCNc1ncc2cc(-c3cc(OC)cc(OC)c3)c(NC(=O)NC(C)(C)C)nc2n1 + Cc1cc(Nc2cc(N3CCN(C)CC3)nc(Sc3ccc(NC(=O)C4CC4)cc3)n2)n[nH]1 [Tozasertib] (partner 0.1 µM)

>  <label>
lower

$$$$
>  <compound>
O=c1cc(N2CCOCC2)oc2c(-c3cccc4c3sc3ccccc34)cccc12 + CS(=O)(=O)N1CCN(Cc2cc3nc(-c4cccc5[nH]ncc45)nc(N4CCOCC4)c3s2)CC1 [Pictilisib] (partner 1 µM)

>  <label>
lower

$$$$
>  <compound>
O=c1cc(N2CCOCC2)oc2c(-c3cccc4c3sc3ccccc34)cccc12 + CCNC(=O)c1noc(-c2cc(C(C)C)c(O)cc2O)c1-c1ccc(CN2CCOCC2)cc1 [Luminespib] (partner 0.01 µM)

>  <label>
upper

$$$$
>  <compound>
CCN(CC)CCCCNc1ncc2cc(-c3cc(OC)cc(OC)c3)c(NC(=O)NC(C)(C)C)nc2n1 + Nc1nc2[nH]cc(CCc3ccc(C(=O)N[C@@H](CCC(=O)O)C(=O)O)cc3)c2c(=O)[nH]1 [Pemetrexed] (partner 0.2 µM)

>  <label>
middle

$$$$
>  <compound>
CCN(CC)CCCCNc1ncc2cc(-c3cc(OC)cc(OC)c3)c(NC(=O)NC(C)(C)C)nc2n1 + CC1(C)CCC(c2ccc(Cl)cc2)=C(CN2CCN(c3ccc(C(=O)NS(=O)(=O)c4ccc(N[C@H](CCN5CCOCC5)CSc5ccccc5)c(S(=O)(=O)C(F)(F)F)c4)cc3)CC2)C1 [Navitoclax] (partner 0.5 µM)

>  <label>
upper

$$$$
>  <compound>
CCN(CC)CCCCNc1ncc2cc(-c3cc(OC)cc(OC)c3)c(NC(=O)NC(C)(C)C)nc2n1 + CS(=O)(=O)N1CCN(Cc2cc3nc(-c4cccc5[nH]ncc45)nc(N4CCOCC4)c3s2)CC1 [Pictilisib] (partner 1 µM)

>  <label>
lower

$$$$
>  <compound>
O=c1cc(N2CCOCC2)oc2c(-c3cccc4c3sc3ccccc34)cccc12 + O=C(CCCCCCC(=O)Nc1ccccc1)NO [Vorinostat] (partner 1 µM)

>  <label>
middle

$$$$

---

Test system: NCI-H358
Assay: relative viability (nuclei count vs DMSO), 5 days (fraction); higher = more cells survive
Conditions: first compound 1 µM
Label Condition met when relative viability < 0.4; otherwise Condition not met.

>  <compound>
CCN(CC)CCCCNc1ncc2cc(-c3cc(OC)cc(OC)c3)c(NC(=O)NC(C)(C)C)nc2n1 + Cc1cc(Nc2cc(N3CCN(C)CC3)nc(Sc3ccc(NC(=O)C4CC4)cc3)n2)n[nH]1 [Tozasertib] (partner 0.1 µM)

>  <label>
Condition met

$$$$
>  <compound>
O=c1cc(N2CCOCC2)oc2c(-c3cccc4c3sc3ccccc34)cccc12 + COc1cc2c(Oc3ccc(NC(=O)C4(C(=O)Nc5ccc(F)cc5)CC4)cc3F)ccnc2cc1OCCCN1CCOCC1 [Foretinib] (partner 0.25 µM)

>  <label>
Condition not met

$$$$
>  <compound>
O=c1cc(N2CCOCC2)oc2c(-c3cccc4c3sc3ccccc34)cccc12 + Cc1nc(Nc2ncc(C(=O)Nc3c(C)cccc3Cl)s2)cc(N2CCN(CCO)CC2)n1 [Dasatinib] (partner 0.075 µM)

>  <label>
Condition met

$$$$
>  <compound>
CCN(CC)CCCCNc1ncc2cc(-c3cc(OC)cc(OC)c3)c(NC(=O)NC(C)(C)C)nc2n1 + COc1cccc2cc(-c3nc([C@H]4CC[C@H](C(=O)O)CC4)n4ncnc(N)c34)[nH]c12 [OSI-027] (partner 0.5 µM)

>  <label>
Condition not met

$$$$
>  <compound>
O=c1cc(N2CCOCC2)oc2c(-c3cccc4c3sc3ccccc34)cccc12 + COc1cccc2cc(-c3nc([C@H]4CC[C@H](C(=O)O)CC4)n4ncnc(N)c34)[nH]c12 [OSI-027] (partner 0.5 µM)

>  <label>
Condition not met

$$$$
>  <compound>
CCN(CC)CCCCNc1ncc2cc(-c3cc(OC)cc(OC)c3)c(NC(=O)NC(C)(C)C)nc2n1 + O=C(CCCCCCC(=O)Nc1ccccc1)NO [Vorinostat] (partner 1 µM)

>  <label>
Condition not met

$$$$
